Test system: A549
TEST_METHOD_NOTES: In vitro anti-proliferative activity (MTT assay)
Format: cell-based, human
EXPERIMENTAL_CONDITIONS: Homo sapiens; A549; mean of three replicates
MEASURED_ATTRIBUTE: IC50 (µM)
# output: bare number, implied unit µM

Which IC50 value is on record for COc1ccc(NC(=O)CN2C(=O)S/C(=C\c3cc4cc(OC)ccc4[nH]c3=O)C2=O)cc1 ?
196

Same for COc1ccc(NC(=O)CN2C(=O)S/C(=C3\C(=O)Nc4ccccc43)C2=O)cc1
54

Entry to check: COc1cccc2c1C(=O)c1c(O)c3c(c(O)c1C2=O)C[C@@](O)(C(=O)CO)C[C@@H]3O[C@H]1C[C@H](N)[C@H](O)[C@H](C)O1 [Doxorubicin, reference compound]
7

Okay, and COc1ccc2[nH]c(=O)c(/C=C3\SC(=O)N(CC(=O)Nc4ccccc4)C3=O)cc2c1 ?
159

Then COc1ccc2[nH]c(=O)c(/C=C3\SC(=O)N(CC(=O)Nc4ccccc4C)C3=O)cc2c1 ?
51

Origin of values: paper PMC9387325
